Ref: ChEMBL document CHEMBL5537122

target_of_assay: UniProt:P00533
pIC50: −log10 of the molar value.
Readings of pIC50 for the listed compounds
result_type: pIC50

>  <compound_structure>
COc1cc2ncnc(Oc3ccc(NC(=O)CCCc4ccc(C)cc4)cc3F)c2cc1NC(=O)CCC(C)C

>  <lt_gt_eq>
<

>  <observed_measurement>
5.00

$$$$
>  <compound_structure>
CCC(=O)Nc1cc2c(Oc3ccc(NC(=O)c4sc(-c5ccccc5)nc4C)cc3F)cccc2cc1OC

>  <lt_gt_eq>
=

>  <observed_measurement>
5.41

$$$$
>  <compound_structure>
C/C=C/C(=O)Nc1cc2c(Oc3ccc(NC(=O)CCCc4ccccc4)cc3F)ncnc2cc1OC

>  <lt_gt_eq>
=

>  <observed_measurement>
5.54

$$$$
>  <compound_structure>
C/C=C/C(=O)Nc1cc2c(Oc3ccc(NC(=O)c4sc(-c5ccccc5)nc4C)cc3F)cccc2cc1OC

>  <lt_gt_eq>
=

>  <observed_measurement>
5.63

$$$$
>  <compound_structure>
CCCC(=O)Nc1cc2c(Oc3ccc(NC(=O)c4sc(-c5ccccc5)nc4C)cc3F)cccc2cc1OC

>  <lt_gt_eq>
<

>  <observed_measurement>
5.00

$$$$
>  <compound_structure>
COc1cc2ncnc(Oc3ccc(NC(=O)CCCc4ccccc4)cc3F)c2cc1NC(=O)CCC(C)C

>  <lt_gt_eq>
<

>  <observed_measurement>
5.00

$$$$
>  <compound_structure>
CCCCC(=O)Nc1cc2c(Oc3ccc(NC(=O)CCCc4ccsc4)cc3F)ncnc2cc1OC

>  <lt_gt_eq>
<

>  <observed_measurement>
5.00

$$$$
>  <compound_structure>
COc1cc2ncnc(Oc3ccc(NC(=O)CCCc4ccsc4)cc3F)c2cc1NC(=O)CCC(C)C

>  <lt_gt_eq>
<

>  <observed_measurement>
5.00

$$$$
>  <compound_structure>
CCC(=O)Nc1cc2c(Oc3ccc(NC(=O)CCCc4ccccc4)cc3F)ncnc2cc1OC

>  <lt_gt_eq>
=

>  <observed_measurement>
5.84

$$$$

----------
// Epidermal growth factor receptor (Homo sapiens) IC50 records

>  <compound_structure>
CCCC(=O)Nc1cc2c(Oc3ccc(NC(=O)CCCc4ccccc4)cc3F)ncnc2cc1OC

>  <lt_gt_eq>
=

>  <IC50 / µM>
2.65

$$$$
>  <compound_structure>
CCCCC(=O)Nc1cc2c(Oc3ccc(NC(=O)CCCc4ccc(F)cc4)cc3F)ncnc2cc1OC

>  <lt_gt_eq>
>

>  <IC50 / µM>
10

$$$$
>  <compound_structure>
CCC(=O)Nc1cc2c(Oc3ccc(NC(=O)CCCc4ccc(F)cc4)cc3F)ncnc2cc1OC

>  <lt_gt_eq>
=

>  <IC50 / µM>
6.87

$$$$
>  <compound_structure>
CCC(=O)Nc1cc2c(Oc3ccc(NC(=O)CCCc4ccc(C)cc4)cc3F)ncnc2cc1OC

>  <lt_gt_eq>
=

>  <IC50 / µM>
8.43

$$$$
>  <compound_structure>
C=CC(=O)Nc1cc2c(Oc3ccc(NC(=O)n4c(=O)c(-c5ccccc5)c(C)n4C)cc3F)cccc2cc1OC

>  <lt_gt_eq>
=

>  <IC50 / µM>
0.0998

$$$$
>  <compound_structure>
COc1ccc(CCCC(=O)Nc2ccc(Oc3ncnc4cc(OC)c(NC(=O)CCC(C)C)cc34)c(F)c2)cc1

>  <lt_gt_eq>
>

>  <IC50 / µM>
10

$$$$
>  <compound_structure>
CCCC(=O)Nc1cc2c(Oc3ccc(NC(=O)CCCc4ccc(F)cc4)cc3F)ncnc2cc1OC

>  <lt_gt_eq>
>

>  <IC50 / µM>
10

$$$$
>  <compound_structure>
CCC(=O)Nc1cc2c(Oc3ccc(NC(=O)n4c(=O)c(-c5ccccc5)c(C)n4C)cc3F)cccc2cc1OC

>  <lt_gt_eq>
>

>  <IC50 / µM>
10

$$$$
>  <compound_structure>
CCCCC(=O)Nc1cc2c(Oc3ccc(NC(=O)CCCc4ccccc4)cc3F)ncnc2cc1OC

>  <lt_gt_eq>
>

>  <IC50 / µM>
10

$$$$

----------
target_of_assay: Hepatocyte growth factor receptor (Homo sapiens, UniProt P08581)
Sequence (P08581 whole entry): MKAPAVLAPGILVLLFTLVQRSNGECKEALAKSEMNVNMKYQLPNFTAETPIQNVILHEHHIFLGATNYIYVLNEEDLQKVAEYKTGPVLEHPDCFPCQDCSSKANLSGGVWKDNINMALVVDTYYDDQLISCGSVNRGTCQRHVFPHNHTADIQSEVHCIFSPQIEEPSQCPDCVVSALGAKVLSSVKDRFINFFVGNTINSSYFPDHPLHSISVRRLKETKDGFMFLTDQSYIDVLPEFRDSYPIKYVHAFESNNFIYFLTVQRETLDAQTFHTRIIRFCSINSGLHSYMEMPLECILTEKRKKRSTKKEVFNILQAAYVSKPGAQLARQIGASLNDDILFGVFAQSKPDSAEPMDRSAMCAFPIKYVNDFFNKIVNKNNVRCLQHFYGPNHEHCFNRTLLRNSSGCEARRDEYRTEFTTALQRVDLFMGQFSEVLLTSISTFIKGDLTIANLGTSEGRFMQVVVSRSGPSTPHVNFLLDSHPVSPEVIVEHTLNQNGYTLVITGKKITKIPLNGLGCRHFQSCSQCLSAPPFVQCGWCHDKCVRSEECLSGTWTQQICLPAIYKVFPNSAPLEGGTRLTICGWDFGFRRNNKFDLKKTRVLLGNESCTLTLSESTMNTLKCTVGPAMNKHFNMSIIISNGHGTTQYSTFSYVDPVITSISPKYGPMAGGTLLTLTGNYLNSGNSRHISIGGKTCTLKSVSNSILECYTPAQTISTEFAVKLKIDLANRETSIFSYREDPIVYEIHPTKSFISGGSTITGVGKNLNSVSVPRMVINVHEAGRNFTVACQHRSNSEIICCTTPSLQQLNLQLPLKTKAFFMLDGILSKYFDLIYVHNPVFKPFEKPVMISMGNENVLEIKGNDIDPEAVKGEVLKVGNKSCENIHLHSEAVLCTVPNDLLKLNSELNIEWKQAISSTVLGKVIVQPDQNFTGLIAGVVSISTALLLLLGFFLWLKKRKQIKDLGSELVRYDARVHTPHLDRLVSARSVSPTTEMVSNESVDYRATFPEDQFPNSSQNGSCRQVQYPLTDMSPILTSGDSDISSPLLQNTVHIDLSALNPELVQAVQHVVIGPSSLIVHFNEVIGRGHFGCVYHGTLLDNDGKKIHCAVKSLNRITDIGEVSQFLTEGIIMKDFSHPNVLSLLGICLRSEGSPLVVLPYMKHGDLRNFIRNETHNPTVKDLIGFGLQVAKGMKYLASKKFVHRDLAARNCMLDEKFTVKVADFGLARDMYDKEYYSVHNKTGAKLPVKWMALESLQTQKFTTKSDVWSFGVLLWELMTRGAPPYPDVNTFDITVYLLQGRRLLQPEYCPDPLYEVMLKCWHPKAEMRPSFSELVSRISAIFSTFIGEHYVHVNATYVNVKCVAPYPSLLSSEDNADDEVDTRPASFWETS
Readings of IC50 for the listed molecules
result_type: IC50 (nM)

>  <compound_structure>
CCC(=O)Nc1cc2c(Oc3ccc(NC(=O)c4c(-c5c(Cl)cccc5Cl)noc4C)cc3F)cccc2cc1OC

>  <result_type>
IC50

>  <u>
nM

>  <observed_measurement>
3480

$$$$
>  <compound_structure>
C=CC(=O)Nc1cc2c(Oc3ccc(NC(=O)CCCc4ccccc4)cc3F)ncnc2cc1OC

>  <result_type>
IC50

>  <u>
nM

>  <observed_measurement>
658

$$$$
>  <compound_structure>
CCC(=O)Nc1cc2c(Oc3ccc(NC(=O)n4c(=O)c(-c5ccccc5)c(C)n4C)cc3F)cccc2cc1OC

>  <result_type>
IC50

>  <u>
nM

>  <observed_measurement>
1.02

$$$$
>  <compound_structure>
CCC(=O)Nc1cc2c(Oc3ccc(NC(=O)CCCc4ccccc4)cc3F)ncnc2cc1OC

>  <result_type>
IC50

>  <u>
nM

>  <observed_measurement>
444

$$$$
>  <compound_structure>
C/C=C/C(=O)Nc1cc2c(Oc3ccc(NC(=O)CCCc4ccsc4)cc3F)ncnc2cc1OC

>  <result_type>
IC50

>  <u>
nM

>  <observed_measurement>
1390

$$$$
>  <compound_structure>
C/C=C/C(=O)Nc1cc2c(Oc3ccc(NC(=O)CCCc4ccc(C)cc4)cc3F)ncnc2cc1OC

>  <result_type>
IC50

>  <u>
nM

>  <observed_measurement>
531

$$$$
>  <compound_structure>
CCCC(=O)Nc1cc2c(Oc3ccc(NC(=O)CCCc4ccc(F)cc4)cc3F)ncnc2cc1OC

>  <result_type>
IC50

>  <u>
nM

>  <observed_measurement>
477

$$$$
>  <compound_structure>
CCCC(=O)Nc1cc2c(Oc3ccc(NC(=O)n4c(=O)c(-c5ccccc5)c(C)n4C)cc3F)cccc2cc1OC

>  <result_type>
IC50

>  <u>
nM

>  <observed_measurement>
4.11

$$$$

----------
target_of_assay: Epidermal growth factor receptor (Homo sapiens, UniProt P00533, L858R)
Sequence (P00533 25-1210 L858R limits assumed): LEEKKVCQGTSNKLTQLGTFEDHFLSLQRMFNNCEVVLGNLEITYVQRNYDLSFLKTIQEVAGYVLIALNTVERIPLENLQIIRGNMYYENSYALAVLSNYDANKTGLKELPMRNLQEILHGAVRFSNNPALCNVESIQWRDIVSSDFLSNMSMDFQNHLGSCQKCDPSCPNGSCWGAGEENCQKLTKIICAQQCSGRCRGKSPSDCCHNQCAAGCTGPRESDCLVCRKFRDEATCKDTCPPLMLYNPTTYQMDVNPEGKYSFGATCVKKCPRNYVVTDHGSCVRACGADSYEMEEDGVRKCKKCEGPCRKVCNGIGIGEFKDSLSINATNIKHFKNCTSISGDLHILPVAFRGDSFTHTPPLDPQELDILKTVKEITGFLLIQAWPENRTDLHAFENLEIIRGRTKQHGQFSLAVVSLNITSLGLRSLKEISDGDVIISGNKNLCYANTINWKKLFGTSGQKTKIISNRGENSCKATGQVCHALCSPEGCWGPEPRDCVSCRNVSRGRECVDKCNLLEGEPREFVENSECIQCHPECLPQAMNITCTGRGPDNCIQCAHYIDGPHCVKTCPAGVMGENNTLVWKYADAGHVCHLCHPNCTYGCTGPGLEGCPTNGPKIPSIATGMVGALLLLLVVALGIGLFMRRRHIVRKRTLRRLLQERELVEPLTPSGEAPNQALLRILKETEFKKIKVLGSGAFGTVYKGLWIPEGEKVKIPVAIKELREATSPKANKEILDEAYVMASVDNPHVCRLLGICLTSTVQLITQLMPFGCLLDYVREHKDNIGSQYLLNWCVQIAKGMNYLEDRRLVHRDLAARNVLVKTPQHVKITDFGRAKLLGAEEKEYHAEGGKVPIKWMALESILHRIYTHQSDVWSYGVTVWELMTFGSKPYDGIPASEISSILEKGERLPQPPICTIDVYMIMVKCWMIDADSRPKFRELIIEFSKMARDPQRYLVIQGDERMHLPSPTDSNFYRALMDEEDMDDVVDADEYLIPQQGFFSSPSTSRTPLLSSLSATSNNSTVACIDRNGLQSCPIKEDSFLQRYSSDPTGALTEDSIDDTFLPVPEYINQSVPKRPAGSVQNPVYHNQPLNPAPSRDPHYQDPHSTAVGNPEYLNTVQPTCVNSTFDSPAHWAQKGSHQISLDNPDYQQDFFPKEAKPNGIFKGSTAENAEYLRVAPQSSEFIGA
assay_protocol: biochemical
Readings of IC50 for the listed compounds

>  <compound_structure>
CCC(=O)Nc1cc2c(Oc3ccc(NC(=O)n4c(=O)c(-c5ccccc5)c(C)n4C)cc3F)cccc2cc1OC

>  <IC50>
> 10 µM

$$$$
>  <compound_structure>
CCC(=O)Nc1cc2c(Oc3ccc(NC(=O)NCCc4ccc(OC)c(OC)c4)cc3F)ncnc2cc1OC

>  <IC50>
> 10 µM

$$$$
>  <compound_structure>
C=CC(=O)Nc1cc2c(Oc3ccc(NC(=O)c4sc(-c5ccccc5)nc4C)cc3F)cccc2cc1OC

>  <IC50>
0.518 µM

$$$$
>  <compound_structure>
C=CC(=O)Nc1cc2c(Oc3ccc(NC(=O)CCCc4ccsc4)cc3F)ncnc2cc1OC

>  <IC50>
> 10 µM

$$$$
>  <compound_structure>
C/C=C/C(=O)Nc1cc2c(Oc3ccc(NC(=O)CCCc4ccccc4)cc3F)ncnc2cc1OC

>  <IC50>
3.54 µM

$$$$
>  <compound_structure>
COc1cc2ncnc(Oc3ccc(NC(=O)CCCc4ccc(C)cc4)cc3F)c2cc1NC(=O)CCC(C)C

>  <IC50>
> 10 µM

$$$$
>  <compound_structure>
C/C=C/C(=O)Nc1cc2c(Oc3ccc(NC(=O)CCCc4ccc(F)cc4)cc3F)ncnc2cc1OC

>  <IC50>
5.72 µM

$$$$
>  <compound_structure>
COc1cc2ncnc(Oc3ccc(NC(=O)CCCc4ccc(F)cc4)cc3F)c2cc1NC(=O)CCC(C)C

>  <IC50>
> 10 µM

$$$$
>  <compound_structure>
C/C=C/C(=O)Nc1cc2c(Oc3ccc(NC(=O)n4c(=O)c(-c5ccccc5)c(C)n4C)cc3F)cccc2cc1OC

>  <IC50>
> 10 µM

$$$$
>  <compound_structure>
CCCCC(=O)Nc1cc2c(Oc3ccc(NC(=O)CCCc4ccsc4)cc3F)ncnc2cc1OC

>  <IC50>
> 10 µM

$$$$
>  <compound_structure>
CCC(=O)Nc1cc2c(Oc3ccc(NC(=O)CCCc4ccc(OC)cc4)cc3F)ncnc2cc1OC

>  <IC50>
> 10 µM

$$$$
>  <compound_structure>
COc1cc2ncnc(Oc3ccc(NC(=O)CCCc4ccsc4)cc3F)c2cc1NC(=O)CCC(C)C

>  <IC50>
> 10 µM

$$$$
>  <compound_structure>
C/C=C/C(=O)Nc1cc2c(Oc3ccc(NC(=O)c4c(-c5c(Cl)cccc5Cl)noc4C)cc3F)cccc2cc1OC

>  <IC50>
> 10 µM

$$$$
>  <compound_structure>
CCC(=O)Nc1cc2c(Oc3ccc(NC(=O)CCCc4ccsc4)cc3F)ncnc2cc1OC

>  <IC50>
> 10 µM

$$$$
>  <compound_structure>
CCCC(=O)Nc1cc2c(Oc3ccc(NC(=O)CCCc4ccsc4)cc3F)ncnc2cc1OC

>  <IC50>
> 10 µM

$$$$
>  <compound_structure>
C=CC(=O)Nc1cc2c(Oc3ccc(NC(=O)CCCc4ccccc4)cc3F)ncnc2cc1OC

>  <IC50>
0.497 µM

$$$$
>  <compound_structure>
CCCC(=O)Nc1cc2c(Oc3ccc(NC(=O)CCCc4ccc(C)cc4)cc3F)ncnc2cc1OC

>  <IC50>
> 10 µM

$$$$
>  <compound_structure>
CCCC(=O)Nc1cc2c(Oc3ccc(NC(=O)CCCc4ccc(OC)cc4)cc3F)ncnc2cc1OC

>  <IC50>
8.96 µM

$$$$
>  <compound_structure>
CCCC(=O)Nc1cc2c(Oc3ccc(NC(=O)c4sc(-c5ccccc5)nc4C)cc3F)cccc2cc1OC

>  <IC50>
> 10 µM

$$$$
>  <compound_structure>
CCC(=O)Nc1cc2c(Oc3ccc(NC(=O)c4sc(-c5ccccc5)nc4C)cc3F)cccc2cc1OC

>  <IC50>
> 10 µM

$$$$
>  <compound_structure>
C=CC(=O)Nc1cc2c(Oc3ccc(NC(=O)CCCc4ccc(C)cc4)cc3F)ncnc2cc1OC

>  <IC50>
1.47 µM

$$$$
>  <compound_structure>
C/C=C/C(=O)Nc1cc2c(Oc3ccc(NC(=O)CCCc4ccc(OC)cc4)cc3F)ncnc2cc1OC

>  <IC50>
> 10 µM

$$$$
>  <compound_structure>
COc1ccc(CCCC(=O)Nc2ccc(Oc3ncnc4cc(OC)c(NC(=O)CCC(C)C)cc34)c(F)c2)cc1

>  <IC50>
> 10 µM

$$$$
>  <compound_structure>
CCCC(=O)Nc1cc2c(Oc3ccc(NC(=O)CCCc4ccc(F)cc4)cc3F)ncnc2cc1OC

>  <IC50>
> 10 µM

$$$$
>  <compound_structure>
C=CC(=O)Nc1cc2c(Oc3ccc(NC(=O)NCCc4csc(Br)c4)cc3F)ncnc2cc1OC

>  <IC50>
1.51 µM

$$$$
>  <compound_structure>
COc1cc2ncnc(Oc3ccc(NC(=O)CCCc4ccccc4)cc3F)c2cc1NC(=O)CCC(C)C

>  <IC50>
> 10 µM

$$$$
>  <compound_structure>
CCC(=O)Nc1cc2c(Oc3ccc(NC(=O)NCCC4CCCCC4)cc3F)ncnc2cc1OC

>  <IC50>
> 10 µM

$$$$
>  <compound_structure>
C/C=C/C(=O)Nc1cc2c(Oc3ccc(NC(=O)c4sc(-c5ccccc5)nc4C)cc3F)cccc2cc1OC

>  <IC50>
> 10 µM

$$$$
>  <compound_structure>
CCCCC(=O)Nc1cc2c(Oc3ccc(NC(=O)CCCc4ccc(C)cc4)cc3F)ncnc2cc1OC

>  <IC50>
> 10 µM

$$$$
>  <compound_structure>
CCCCC(=O)Nc1cc2c(Oc3ccc(NC(=O)CCCc4ccccc4)cc3F)ncnc2cc1OC

>  <IC50>
> 10 µM

$$$$
>  <compound_structure>
CCCCC(=O)Nc1cc2c(Oc3ccc(NC(=O)CCCc4ccc(F)cc4)cc3F)ncnc2cc1OC

>  <IC50>
> 10 µM

$$$$
>  <compound_structure>
CCC(=O)Nc1cc2c(Oc3ccc(NC(=O)CCCc4ccccc4)cc3F)ncnc2cc1OC

>  <IC50>
2.27 µM

$$$$
>  <compound_structure>
CCCC(=O)Nc1cc2c(Oc3ccc(NC(=O)n4c(=O)c(-c5ccccc5)c(C)n4C)cc3F)cccc2cc1OC

>  <IC50>
> 10 µM

$$$$
>  <compound_structure>
C/C=C/C(=O)Nc1cc2c(Oc3ccc(NC(=O)CCCc4ccsc4)cc3F)ncnc2cc1OC

>  <IC50>
> 10 µM

$$$$
>  <compound_structure>
CCC(=O)Nc1cc2c(Oc3ccc(NC(=O)CCCc4ccc(F)cc4)cc3F)ncnc2cc1OC

>  <IC50>
5.31 µM

$$$$
